# Tested on: Proteus vulgaris
# experiment: Antibacterial activity against Proteus vulgaris ATCC 3851 after 24 hrs by twofold serial dilution method
# Type: functional
# conditions.used: ATCC 3851, 24 h

[
  {
    "compound": "CO[C@@H]1C[C@H]2[C@]3(C)CC[C@H]4C(C)(C)CCC[C@]4(C)[C@H]3C[C@@H](OC(C)=O)[C@]2(C)C2=C1C(=O)O[C@H]2O",
    "MIC (µg/mL)": 3.12
  },
  {
    "compound": "CO[C@@H]1C[C@H]2[C@]3(C)CC[C@H]4C(C)(C)CCC[C@]4(C)[C@H]3C[C@@H](OC(C)=O)[C@]2(C)C2=C1C(=O)N(CC(=O)[O-])[C@H]2OC.[Na+]",
    "MIC (µg/mL)": 25
  },
  {
    "compound": "CC1(C)S[C@@H]2[C@H](NC(=O)[C@H](N)c3ccccc3)C(=O)N2[C@H]1C(=O)O [AMPICILLIN]",
    "MIC (µg/mL)": 1.56
  }
]

###

# System: Salmonella typhimurium
# experiment: Antibacterial activity against Salmonella typhimurium ATCC 14028 after 24 hrs by twofold serial dilution method
# Type: functional, Salmonella enterica subsp. enterica serovar Typhimurium
# conditions.used: Salmonella enterica, ATCC 14028, 24 h
Some molecules, each annotated with its measured MIC.

[
  {
    "molecule": "CC(=O)OC[C@]12CCCC(C)(C)[C@@H]1CC[C@]1(C)[C@@H]2C[C@@H](OC(C)=O)[C@]2(C)[C@@H]3C(=CC[C@@H]12)CO[C@H]3O",
    "tgt": "Salmonella typhimurium",
    "comparison.operator": ">",
    "MIC, µg/mL": 100
  },
  {
    "molecule": "CO[C@@H]1C[C@H]2[C@]3(C)CC[C@H]4C(C)(C)CCC[C@]4(C)[C@H]3C[C@@H](OC(C)=O)[C@]2(C)C2=C1[C@H](O)OC2=O (mixture of isomers)",
    "tgt": "Salmonella typhimurium",
    "comparison.operator": "=",
    "MIC, µg/mL": 12.5
  },
  {
    "molecule": "CO[C@@H]1OCC2=CC[C@H]3[C@]4(C)CC[C@H]5C(C)(C)CCC[C@]5(C)[C@H]4C[C@@H](O)[C@]3(C)[C@H]21",
    "tgt": "Salmonella typhimurium",
    "comparison.operator": ">",
    "MIC, µg/mL": 100
  },
  {
    "molecule": "CO[C@@H]1C[C@H]2[C@]3(C)CC[C@H]4C(C)(C)CCC[C@]4(C)[C@H]3C[C@@H](OC(C)=O)[C@]2(C)C2=C1C(=O)N(CC(=O)[O-])[C@H]2OC.[Na+]",
    "tgt": "Salmonella typhimurium",
    "comparison.operator": "=",
    "MIC, µg/mL": 50
  },
  {
    "molecule": "CC1(C)S[C@@H]2[C@H](NC(=O)[C@H](N)c3ccccc3)C(=O)N2[C@H]1C(=O)O",
    "tgt": "Salmonella typhimurium",
    "comparison.operator": "=",
    "MIC, µg/mL": 1.56
  },
  {
    "molecule": "CO[C@@H]1OC(=O)C2=CC[C@H]3[C@]4(C)CC[C@H]5C(C)(C)CCC[C@]5(C)[C@H]4C[C@@H](OC(C)=O)[C@]3(C)[C@H]21",
    "tgt": "Salmonella typhimurium",
    "comparison.operator": ">",
    "MIC, µg/mL": 100
  },
  {
    "molecule": "CC(=O)OC[C@]12CCCC(C)(C)[C@@H]1CC[C@]1(C)[C@@H]2C[C@@H](O)[C@]2(C)[C@@H]3C(=CC[C@@H]12)CO[C@H]3O",
    "tgt": "Salmonella typhimurium",
    "comparison.operator": "=",
    "MIC, µg/mL": 12.5
  },
  {
    "molecule": "CO[C@@H]1C[C@H]2[C@]3(C)CC[C@H]4C(C)(C)CCC[C@]4(C)[C@H]3C[C@@H](OC(C)=O)[C@]2(C)C2=C1C(=O)O[C@H]2O",
    "tgt": "Salmonella typhimurium",
    "comparison.operator": "=",
    "MIC, µg/mL": 12.5
  },
  {
    "molecule": "CO[C@@H]1OCC2=CC[C@H]3[C@]4(C)CC[C@H]5C(C)(C)CCC[C@]5(C)[C@H]4C[C@@H](OC(C)=O)[C@]3(C)[C@H]21",
    "tgt": "Salmonella typhimurium",
    "comparison.operator": ">",
    "MIC, µg/mL": 100
  }
]

###

# System: Proteus vulgaris
# experiment: Antibacterial activity against Proteus vulgaris ATCC 3851 after 24 hrs by twofold serial dilution method
# Format: functional
# conditions.used: ATCC 3851, 24 h

[
  {
    "molecule": "CO[C@@H]1C[C@H]2[C@]3(C)CC[C@H]4C(C)(C)CCC[C@]4(C)[C@H]3C[C@@H](OC(C)=O)[C@]2(C)C2=C1[C@H](O)OC2=O (mixture of isomers)",
    "tgt": "Proteus vulgaris",
    "comparison.operator": "=",
    "MIC / µg/mL": 1.56
  },
  {
    "molecule": "CC(=O)OC[C@]12CCCC(C)(C)[C@@H]1CC[C@]1(C)[C@@H]2C[C@@H](O)[C@]2(C)[C@@H]3C(=CC[C@@H]12)CO[C@H]3O",
    "tgt": "Proteus vulgaris",
    "comparison.operator": "=",
    "MIC / µg/mL": 12.6
  },
  {
    "molecule": "CO[C@@H]1OCC2=CC[C@H]3[C@]4(C)CC[C@H]5C(C)(C)CCC[C@]5(C)[C@H]4C[C@@H](OC(C)=O)[C@]3(C)[C@H]21",
    "tgt": "Proteus vulgaris",
    "comparison.operator": ">",
    "MIC / µg/mL": 100
  }
]

###

# experiment: Inhibition of Magnaporthe grisea Guy 11 isocitrate lyase
# Parameters: species or system Pyricularia oryzae
pIC50: −log10 of the molar value.
Returns criterion met if the recorded pIC50 is greater than or equal to 4, and criterion not met otherwise.

[
  {
    "molecule.smiles": "CO[C@@H]1OC(=O)C2=CC[C@H]3[C@]4(C)CC[C@H]5C(C)(C)CCC[C@]5(C)[C@H]4C[C@@H](OC(C)=O)[C@]3(C)[C@H]21",
    "assigned.label": "criterion met"
  },
  {
    "molecule.smiles": "CO[C@@H]1C[C@H]2[C@]3(C)CC[C@H]4C(C)(C)CCC[C@]4(C)[C@H]3C[C@@H](OC(C)=O)[C@]2(C)C2=C1C(=O)N(CC(=O)[O-])[C@H]2OC.[Na+]",
    "assigned.label": "criterion not met"
  },
  {
    "molecule.smiles": "C[C@@]1(CO)CCC[C@]2(C)[C@H]3C[C@@H](O)[C@]4(C)[C@H]5COC(=O)C5=CC[C@H]4[C@]3(C)CC[C@@H]12",
    "assigned.label": "criterion not met"
  },
  {
    "molecule.smiles": "CC(=O)O[C@@H]1C[C@@H]2[C@@]3(C)CCCC(C)(C)[C@@H]3CC[C@@]2(C)[C@@H]2CC=C3CO[C@@H](O)[C@@H]3[C@@]12C",
    "assigned.label": "criterion met"
  },
  {
    "molecule.smiles": "O=C(O)CC[N+](=O)[O-]",
    "assigned.label": "criterion met"
  }
]

###

Some compounds, each annotated with its measured MIC.
# Test system: Bacillus subtilis
# experiment: Antibacterial activity against Bacillus subtilis ATCC 6633 after 24 hrs by twofold serial dilution method
# Type: functional
# conditions.used: ATCC 6633, 24 h
result.type: MIC (µg/mL)

[
  {
    "compound": "CO[C@@H]1OC(=O)C2=CC[C@H]3[C@]4(C)CC[C@H]5C(C)(C)CCC[C@]5(C)[C@H]4C[C@@H](OC(C)=O)[C@]3(C)[C@H]21",
    "tgt": "Bacillus subtilis",
    "result.type": "MIC",
    "unit.symbol": "µg/mL",
    "comparison.operator": ">",
    "value.observed": 100
  },
  {
    "compound": "C[C@@]1(CO)CCC[C@]2(C)[C@H]3C[C@@H](O)[C@]4(C)[C@H]5COC(=O)C5=CC[C@H]4[C@]3(C)CC[C@@H]12",
    "tgt": "Bacillus subtilis",
    "result.type": "MIC",
    "unit.symbol": "µg/mL",
    "comparison.operator": ">",
    "value.observed": 100
  },
  {
    "compound": "CC(=O)O[C@@H]1C[C@@H]2[C@@]3(C)CCCC(C)(C)[C@@H]3CC[C@@]2(C)[C@@H]2CC=C3CO[C@@H](O)[C@@H]3[C@@]12C",
    "tgt": "Bacillus subtilis",
    "result.type": "MIC",
    "unit.symbol": "µg/mL",
    "comparison.operator": ">",
    "value.observed": 100
  },
  {
    "compound": "CC(=O)O[C@@H]1C[C@@H]2[C@@]3(C)CCCC(C)(C)[C@@H]3CC[C@@]2(C)[C@@H]2CC=C3C(=O)O[C@@H](O)[C@@H]3[C@@]12C",
    "tgt": "Bacillus subtilis",
    "result.type": "MIC",
    "unit.symbol": "µg/mL",
    "comparison.operator": "=",
    "value.observed": 6.25
  },
  {
    "compound": "CC1(C)S[C@@H]2[C@H](NC(=O)[C@H](N)c3ccccc3)C(=O)N2[C@H]1C(=O)O",
    "tgt": "Bacillus subtilis",
    "result.type": "MIC",
    "unit.symbol": "µg/mL",
    "comparison.operator": "=",
    "value.observed": 0.78
  },
  {
    "compound": "CO[C@@H]1C[C@H]2[C@]3(C)CC[C@H]4C(C)(C)CCC[C@]4(C)[C@H]3C[C@@H](OC(C)=O)[C@]2(C)C2=C1C(=O)O[C@H]2O",
    "tgt": "Bacillus subtilis",
    "result.type": "MIC",
    "unit.symbol": "µg/mL",
    "comparison.operator": "=",
    "value.observed": 0.78
  },
  {
    "compound": "CO[C@@H]1OCC2=CC[C@H]3[C@]4(C)CC[C@H]5C(C)(C)CCC[C@]5(C)[C@H]4C[C@@H](OC(C)=O)[C@]3(C)[C@H]21",
    "tgt": "Bacillus subtilis",
    "result.type": "MIC",
    "unit.symbol": "µg/mL",
    "comparison.operator": ">",
    "value.observed": 100
  },
  {
    "compound": "CC(=O)OC[C@]12CCCC(C)(C)[C@@H]1CC[C@]1(C)[C@@H]2C[C@@H](OC(C)=O)[C@]2(C)[C@@H]3C(=CC[C@@H]12)CO[C@H]3O",
    "tgt": "Bacillus subtilis",
    "result.type": "MIC",
    "unit.symbol": "µg/mL",
    "comparison.operator": "=",
    "value.observed": 0.78
  },
  {
    "compound": "CO[C@@H]1C[C@H]2[C@]3(C)CC[C@H]4C(C)(C)CCC[C@]4(C)[C@H]3C[C@@H](OC(C)=O)[C@]2(C)C2=C1C(=O)N(CC(=O)[O-])[C@H]2OC.[Na+]",
    "tgt": "Bacillus subtilis",
    "result.type": "MIC",
    "unit.symbol": "µg/mL",
    "comparison.operator": "=",
    "value.observed": 6.25
  },
  {
    "compound": "CC(=O)OC[C@]12CCCC(C)(C)[C@@H]1CC[C@]1(C)[C@@H]2C[C@@H](O)[C@]2(C)[C@@H]3C(=CC[C@@H]12)CO[C@H]3O",
    "tgt": "Bacillus subtilis",
    "result.type": "MIC",
    "unit.symbol": "µg/mL",
    "comparison.operator": "=",
    "value.observed": 6.25
  },
  {
    "compound": "CO[C@@H]1C[C@H]2[C@]3(C)CC[C@H]4C(C)(C)CCC[C@]4(C)[C@H]3C[C@@H](OC(C)=O)[C@]2(C)C2=C1[C@H](O)OC2=O (mixture of isomers)",
    "tgt": "Bacillus subtilis",
    "result.type": "MIC",
    "unit.symbol": "µg/mL",
    "comparison.operator": "<",
    "value.observed": 0.39
  },
  {
    "compound": "CO[C@@H]1OCC2=CC[C@H]3[C@]4(C)CC[C@H]5C(C)(C)CCC[C@]5(C)[C@H]4C[C@@H](O)[C@]3(C)[C@H]21",
    "tgt": "Bacillus subtilis",
    "result.type": "MIC",
    "unit.symbol": "µg/mL",
    "comparison.operator": ">",
    "value.observed": 100
  }
]
